src = patent US10947185B2

Assay: Stability test: changes of related substances over 6 months
Type: physicochemical
Conditions: 1 month
Experimental Endpoint: Related substances (%)
Lab book: enter the figure in %, no units written.

Examples with their reported Related substances follow.
C[C@@]12CCCCC[C@@H](Cc3ccc(O)cc31)[C@@H]2N (relative stereo) [Example 1] = 0.07
C[C@@]12CCCCC[C@@H](Cc3ccc(O)cc31)[C@@H]2N (relative stereo) [Example 3] = 0.05
C[C@@]12CCCCC[C@@H](Cc3ccc(O)cc31)[C@@H]2N (single isomer, unassigned) [Crystal Form I of dezocine, reference compound] = 0.15
C[C@@]12CCCCC[C@@H](Cc3ccc(O)cc31)[C@@H]2N (relative stereo) [Example 4] = 0.08

Query: Related substances; subject: C[C@@]12CCCCC[C@@H](Cc3ccc(O)cc31)[C@@H]2N (relative stereo) [Example 2]
0.09

Query: Related substances; subject: C[C@@]12CCCCC[C@@H](Cc3ccc(O)cc31)[C@@H]2N (relative stereo) [Example 5]
0.06

---

Assay: Stability test: changes of related substances over 6 months
Type: physicochemical
Settings: 3 months
Experimental Endpoint: Related substances (%)
Lab book: enter the figure in %, no units written.

C[C@@]12CCCCC[C@@H](Cc3ccc(O)cc31)[C@@H]2N (single isomer, unassigned) [Crystal Form I of dezocine, reference compound] = 0.21

Query: Related substances; subject: C[C@@]12CCCCC[C@@H](Cc3ccc(O)cc31)[C@@H]2N (relative stereo) [Example 5]
0.07

Query: Related substances; subject: C[C@@]12CCCCC[C@@H](Cc3ccc(O)cc31)[C@@H]2N (relative stereo) [Example 4]
0.10

Query: Related substances; subject: C[C@@]12CCCCC[C@@H](Cc3ccc(O)cc31)[C@@H]2N (relative stereo) [Example 2]
0.10

Query: Related substances; subject: C[C@@]12CCCCC[C@@H](Cc3ccc(O)cc31)[C@@H]2N (relative stereo) [Example 3]
0.8

Query: Related substances; subject: C[C@@]12CCCCC[C@@H](Cc3ccc(O)cc31)[C@@H]2N (relative stereo) [Example 1]
0.10

---

Assay: Stability test: changes of related substances over 6 months
Type: physicochemical
Conditions: 0 days
Text: iii. Compared with the sample of crystal Form I of dezocine, the new crystal form of dezocine prepared according to the present application has better stability, and changes of the related substances within the new crystal form of dezocine over 6 months are as follows: […]
Experimental Endpoint: Related substances (%)
Lab book: enter the figure in %, no units written.

Examples with their reported Related substances follow.
C[C@@]12CCCCC[C@@H](Cc3ccc(O)cc31)[C@@H]2N (relative stereo) [Example 1] = 0.06
C[C@@]12CCCCC[C@@H](Cc3ccc(O)cc31)[C@@H]2N (relative stereo) [Example 4] = 0.06
C[C@@]12CCCCC[C@@H](Cc3ccc(O)cc31)[C@@H]2N (relative stereo) [Example 5] = 0.04
C[C@@]12CCCCC[C@@H](Cc3ccc(O)cc31)[C@@H]2N (single isomer, unassigned) [Crystal Form I of dezocine, reference compound] = 0.08
C[C@@]12CCCCC[C@@H](Cc3ccc(O)cc31)[C@@H]2N (relative stereo) [Example 3] = 0.04

// next entry
Query: Related substances; subject: C[C@@]12CCCCC[C@@H](Cc3ccc(O)cc31)[C@@H]2N (relative stereo) [Example 2]
0.07
